Target: T1, LHD206 chainB
T1 construct: also called LHD206B
T1 chain: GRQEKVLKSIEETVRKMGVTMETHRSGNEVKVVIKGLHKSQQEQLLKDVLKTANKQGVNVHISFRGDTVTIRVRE
Test: BLI, steady state fit
readout.name: Kd (nM)
Numbers only, in nM.

I'd like to know its Kd. The binder in question is LHD206 chainA (designed binder, also called LHD206A) TDELLERLRQLFEELHERGTEIVVEVHINGRKTEIEVQGIDKRLLKIILEVIREEIEREGSSEVEVNVHSGGQTWTFNEK
8.4
